- target_desc: T1, IL-13RA2 huFc (human)
- T1 construct: Expressed in 293F cells, purified on protein A; also called human IL13RA2; recombinant IL-13RA2
- test_protocol: SPR (Biacore), induced scFv supernatant; column head: Dissociation constant Kd(S-1)
endpoint_name: koff (s⁻¹)
Numbers only, in s⁻¹.

Exercise: Given the entry 2A5 (scFv) (scFv, also called clone 2A5) scFv: EVQLLESGGGLVQPGGSLRLSCAASGFTFSRYAMNWVRQAPGKGLEWVSAISASGGGTYYADSVKGRFTISRDNSKNTLYLQMNSLRAEDTAVYYCAKVRYGWGAGAFDYWGQGTLVTVSSGGGGSGGGGSGGGGSDIQMTQSPSTLSASVGDRVTITCRASQSISSWLAWYQQKPGKAPKLLIYDASSLESGVPSRFSGSGSGTEFTLTISSLQPDDFATYYCQQYDTYPPITFGQGTKVEIK , report its measured koff.
Solution: 0.000788
